src = patent US20100069395A1

>  <smiles>
COc1ccc(-c2cnn3cc(C(=O)Nc4c(C)cccc4C)cnc23)cc1OC

>  <melting point>
230 to 232 °C

$$$$
>  <smiles>
Cc1ccc(NC(=O)c2cccc(C(F)(F)F)c2)cc1NC(=O)c1cnc2ccnn2c1

>  <melting point>
239 to 241 °C

$$$$
>  <smiles>
Cc1ccc(NC(=O)c2ccc(F)c(C(F)(F)F)c2)cc1NC(=O)c1cnc2ccnn2c1

>  <melting point>
267 to 269 °C

$$$$

---

Entries and their melting point

>  <compound>
COc1ccc(C(=O)Nc2ccc(C)c(NC(=O)c3cnc4ccnn4c3)c2)cc1C(F)(F)F [Example 7]

>  <melting point>
256 to 258 °C

$$$$
>  <compound>
Cc1ccc(C(=O)Nc2cccc(C(F)(F)F)c2)cc1NC(=O)c1cnc2ccnn2c1 [Example 1]

>  <melting point>
222 to 224 °C

$$$$
>  <compound>
Cc1cccc(C)c1NC(=O)c1cnc2c(-c3cccc(N4CCN(C)CC4)c3)cnn2c1 [Example 4]

>  <melting point>
227 to 229 °C

$$$$
>  <compound>
Cc1ccc(C(=O)Nc2cccc(C(F)(F)F)c2)cc1NC(=O)C1=CNc2ccnn2C1 [Example 3]

>  <melting point>
259 to 263 °C

$$$$
